- ASSAY DETAILS: method code SF-AS, from DOI: 10.1021/jo00922a017
- DETAILS: pH 1.0
Can you tell me logD for the items I'm about to list?
Give a plain numeric answer without units written out.

## Task Let me know recorded logD for `O=S(=O)(Nc1ccc(I)cc1)C(F)(F)F` , thanks.
## Result 4.39

## Task Let me know recorded logD for `O=S(=O)(Nc1ccccc1)C(F)(F)F` , thanks.
## Result 3.05

## Task Let me know recorded logD for `O=S(=O)(Nc1cccc(O)c1)C(F)(F)F` , thanks.
## Result 2.51

## Task Let me know recorded logD for `O=S(=O)(Nc1ccccc1)C(F)F` , thanks.
## Result 1.95

## Task Let me know recorded logD for `COc1ccc(NS(=O)(=O)C(F)(F)F)cc1` , thanks.
## Result 3

## Task Let me know recorded logD for `O=C(c1ccccc1)c1ccc(NS(=O)(=O)C(F)(F)F)cc1` , thanks.
## Result 4.28

## Task Let me know recorded logD for `CC(=O)c1ccc(NS(=O)(=O)C(F)(F)F)cc1` , thanks.
## Result 2.83

Origin of measurements: the SangsterLogP compilation
